test system: Toxoplasma gondii RH tachyzoites; assay: plaque count per well; higher = less inhibition; extreme values may be limits of the assay; details: 10 µM; 8-10 days
value kind: plaque count per well
The answer should be written as a number, with no unit following it.

Below: 2 molecules and their reported plaque count per well.
>>> print(df.to_string())
                            smiles_notation  reported_measurement
0  COc1cc(-c2nc(-c3ccccc3)c(-c3ccccc3)[nH]2)cc(OC)c1O                    22
1  O=C(NC1CCN(Cc2ccccc2)CC1)c1cc(C(=O)NC2CCN(Cc3ccccc3)CC2)cc(C(=O)NC2CCN(Cc3ccccc3)CC2)c1                    35

Shift focus to the following entry.
For the molecule "Cc1cc(C)c2c(c1)OCN(Cc1ccccc1Cl)C2" , give its reported plaque count per well.
27

###

test system: Toxoplasma gondii RH tachyzoites; assay: median egress time after A23187 ionophore; higher = stronger egress inhibition; conditions: 10 µM; pretreatment time: 24 h
Consider the following molecules and their measured median egress time readings.

For orientation, consider the following solved cases.
                                   molecule  reported_measurement
0    CCN(Cc1ccccc1)C1CCN(Cc2cc(Br)ccc2O)CC1              > 10 min
1  COc1ccc2sc(N(Cc3cccnc3)C(=O)c3ccc(C#N)cc3)nc2c1              > 10 min

For the next question, use this molecule.
Assign median egress time to the following record: COc1cccc(C2(C)Nc3ccccc3-c3nc4ccccc4n32)c1 (stereo not drawn)
> 10 min
